Field: IC50. Provide a value for each of the molecules that follow.
Tested on: Target C
Assay: RT-qPCR canonical junction panel assay, Target C mRNA
Assay type: cell-based
Conditions: Table 4, read-out: Target C IC50 (decrease in CJ mRNA levels)
Experimental: Compounds described herein were used to modulate RNA transcript abundance in cells. The expression of a target mRNA was measured by detecting the formation of an exon-exon junction in the canonical transcript (CJ). A compound mediated exon-inclusion event was detected by observing an increase in formation of a new junction with an alternative exon (AJ). Real-time qPCR assays were used to detect these splicing switches and interrogate the potency of various compounds towards different target genes. […]

Study these solved cases before continuing.
# Molecule, IC50
records = [
    ("Cc1nc(-c2cc3cn(C)nc3cc2O)nc2ccc(N3C[C@H](C)N[C@@H](C)C3)cc12 (single isomer, unassigned) [Compound 806]", "> 10000 nM"),
    ("Cn1cc2cc(-c3ccc4nc(N5CCC(N)C5)ccc4n3)c(O)c(F)c2n1 (stereo in doubt) [Compound 363]", "< 100 nM"),
    ("Cc1c(O)c(-c2nc(C(=O)O)c3cc(N4CCNCC4)ccc3n2)cc2cn(C)nc12 [Compound 524]", "> 10000 nM"),
    ("Cc1nc2c(C)c(O)c(-c3ccc4nc(N5CC[C@H](NC6CCC6)C5)ccc4n3)cc2o1 [Compound 237]", "< 100 nM"),
    ("Cn1cc2cc(-c3nc(C4CC4)c4cc(N5CCNCC5)ccc4n3)c(O)c(F)c2n1 [Compound 518, trifluoroacetic acid]", "> 10000 nM"),
]

Give IC50 for each of the items listed below.
1. Cc1nc2cc(O)c(-c3ccc4nc(N5CCC(NCC6CC6)C5)ccc4n3)cc2o1 (single isomer, unassigned) [Compound 292]
2. CN[C@@H]1CCN(c2ccc3nc(-c4cc5cn(C)nc5c(F)c4O)nc(C4CC4)c3c2)C1 [Compound 543]
3. Cc1c(O)c(-c2ncc3nc([C@@H]4CCNC4)ccc3n2)cc2cn(C)nc12 (single isomer, unassigned) [Compound 398]
4. Cc1c(O)c(-c2ccc3nc(N4CC[C@@H](NC5CC5)C4)ncc3n2)cc2cn(C)nc12 [Compound 438]

Result:
1. 100 to 1000 nM
2. 100 to 1000 nM
3. > 10000 nM
4. 100 to 1000 nM

Give IC50 for each of the items listed below.
1. Cn1cc2cc(-c3ccc4nc(N5CC[C@@H](NC6(CF)CC6)C5)ccc4n3)c(O)cc2n1 [Compound 354]
2. Cn1cc2cc(-c3ccc4nc(N5CC[C@@H](NC(C)(C)C)C5)ccc4n3)c(O)c(F)c2n1 (single isomer, unassigned) [Compound 391]
3. Cc1c(O)c(-c2nc(-c3nnc[nH]3)c3cc(N4CCNCC4)ccc3n2)cc2cn(C)nc12 [Compound 522]
4. Cc1nc2cc(O)c(-c3ccc4nc(N5CCC(NC(C)(C)C)CC5)ccc4n3)cc2o1 [Compound 412]

Result:
1: < 100 nM; 2: < 100 nM; 3: > 10000 nM; 4: 100 to 1000 nM

Q: Return reported IC50. Input molecule: Cc1nc2cc(O)c(-c3ccc4nc(N5CC[C@H](N[C@H]6C[C@H](F)C6)C5)ccc4n3)cc2o1 [Compound 350]
Result: 100 to 1000 nM

----------
tested on: SMN2 mRNA; test: RT-qPCR splicing assay, SMN2 mRNA; format: cell-based, human; conditions: canonical junction qPCR panel, Table 4; read-out: SMN2 IC50 (decrease in CJ mRNA levels)
pIC50: −log10 of the molar value.
Field: pIC50. Provide a value for each of the compounds that follow.

# Compound, pIC50
rows = [
    ("Cc1nc2cc(O)c(-c3ccc4nc(N5CCC(NCC6CC6)C5)ccc4n3)cc2o1 (single isomer, unassigned)", "> 7.00"),
    ("Cc1c(O)c(-c2ccc3nc(N4CCC(NC(C)(C)C)C4)ccc3n2)cc2cn(C)nc12 (stereo not drawn) [Compound 275]", "> 7.00"),
]

Consider the record given below.
Q: Return reported pIC50. Input compound: Cc1c(O)c(-c2ccc3nc(N4CCC(NC(C)(C)C)C4)ccc3n2)cc2cn(C)nc12 (stereo not drawn) [Compound 191]
Result: < 5.00

----------
system: MYB; assay: HiBiT protein abundance assay, MYB (K562 HiBiT knock-in); type: cell-based, human; conditions: HiBiT knock-in K562 cells, 24 hours, top dose 10 μM
pIC50: −log10 of the molar value.
Observable: pIC50

Study these solved cases before continuing.
# Molecule, pIC50
measured = [
    ("Cc1nc2cc(O)c(-c3ccc4nc(N5CC[C@H](NC6CC6)C5)ccc4n3)cc2o1", "> 7.00"),
    ("Cc1nc2c(C)c(O)c(-c3ccc4cc(N5CC[C@@H](NC6CC6)C5)ncc4n3)cc2o1", "6.00 to 7.00"),
    ("Cn1cc2nc(-c3ccc4nc(C5CCNCC5)ccc4n3)ccc2n1", "6.00 to 7.00"),
    ("Cn1cc2cc(-c3ccc4nc(N5CC[C@@H](N[C@H]6C[C@H](F)C6)C5)ccc4n3)c(O)c(F)c2n1 (single isomer, unassigned)", "> 7.00"),
    ("CCNC(=O)c1nc(-c2cc3cn(C)nc3c(C)c2O)nc2ccc(N3C[C@@H](C)N[C@@H](C)C3)cc12", "> 7.00"),
]

Give pIC50 for each of the items listed below.
1. Cc1nc2cc(O)c(-c3ccc4nc(N5CCNCC5)ccc4n3)cc2o1
2. CCC1CN(c2ccc3nc(-c4cc5cn(C)nc5cc4O)ccc3n2)CCN1 (stereo not shown)
3. Cn1cc2cc(-c3ccc4nc(N5CC[C@H](NC6(C)CC6)C5)ccc4n3)c(O)cc2n1
4. CN[C@@H]1CCN(c2ccc3nc(-c4cc(F)c5nc(C)cn5c4)ncc3n2)C1
5. Cc1c(O)c(-c2ccc3cc(N4CCNCC4)cc(F)c3n2)cc2cn(C)nc12
6. CNC(=O)c1nc(-c2cc3cn(C)nc3c(C)c2O)nc2ccc(N3CCNCC3)nc12
7. Cn1cc2cc(-c3ccc4nc(N5CCC(N)C5)ccc4n3)c(O)c(F)c2n1 (stereo not shown) [Compound 238]
8. Cc1nc2cc(O)c(-c3ccc4nc(N5CCC(NC(C)(C)C)C5)ccc4n3)cc2s1 (stereo not shown)

Result:
1: 6.00 to 7.00; 2: 6.00 to 7.00; 3: > 7.00; 4: 6.00 to 7.00; 5: > 7.00; 6: 6.00 to 7.00; 7: > 7.00; 8: < 5.00

----------
tested on: MYB mRNA; assay: RT-qPCR splicing assay, MYB mRNA canonical (CJ) and alternative (AJ) junction; assay type: cell-based, human; settings: Homo sapiens, MYB canonical junction mRNA, RT-qPCR; read-out: MYB CJ (decrease in CJ mRNA levels, IC50)
Observable: IC50

Study these solved cases before continuing.
# Compound, IC50
data = [
    ("CN1CCC(c2ccc3nc(-c4cc5cn(C)nc5cc4O)ccc3n2)CC1", "100 to 1000 nM"),
    ("Cc1c(O)c(-c2nc(-c3cncs3)c3cc(N4CCNCC4)ccc3n2)cc2cn(C)nc12", "100 to 1000 nM"),
    ("Cc1nc2cc(O)c(-c3ccc4nc(N5CC[C@H](NC(C)(C)C)C5)ccc4n3)cc2o1", "< 100 nM"),
    ("CCNC(=O)c1nc(-c2cc3cn(C)nc3c(C)c2O)nc2ccc(N3CCNCC3)cc12", "< 100 nM"),
    ("Cc1nc2cc(O)c(-c3ccc4nc(N5CCC(NC(C)(C)C)CC5)ccc4n3)cc2o1", "100 to 1000 nM"),
    ("CN[C@H]1CCN(c2ccc3nc(-c4cc(C#N)c5nc(C)cn5c4)ncc3n2)C1", "1000 to 10000 nM"),
    ("Cc1nc2c(C)c(O)c(-c3ccc4nc(N5CC[C@@H](NC6CCC6)C5)ccc4n3)cc2o1", "< 100 nM"),
]

Consider the record given below.
Q: System MYB mRNA. Read-out IC50. Item Cn1cc2cc(-c3ccc4nc(N5CC[C@@H](NC6CC6)C5)ccc4n3)c(O)c(F)c2n1 (single isomer, unassigned) . Report value.
Result: < 100 nM

----------
system: MYB; assay: HiBiT protein abundance assay, MYB (K562 HiBiT knock-in); type: cell-based, human; details: HiBiT knock-in K562 cells, 24 hours, top dose 10 μM
pIC50: −log10 of the molar value.
Field: pIC50. Provide a value for each of the compounds that follow.

Study these solved cases before continuing.
# Compound, pIC50
measured = [
    ("Cn1cc2cc(-c3ccc4nc(N5CC[C@@H](N[C@H]6C[C@@H](F)C6)C5)ccc4n3)c(O)cc2n1 (single isomer, unassigned) [Compound 300]", "> 7.00"),
    ("CN(C)C1CCN(c2ccc3nc(-c4cc5cn(C)nc5cc4O)ccc3n2)C1 (stereo not shown) [Compound 129]", "6.00 to 7.00"),
    ("C[C@@H]1CN(c2cc(F)c3nc(-c4cc(F)c5nn(C)cc5c4)ccc3c2)C[C@H](C)N1 [Compound 758]", "6.00 to 7.00"),
    ("CNC(=O)c1nc(-c2cc3cn(C)nc3c(C)c2O)nc2ccc(N3C[C@@H](C)N[C@@H](C)C3)cc12 [Compound 511]", "> 7.00"),
    ("CNC(=O)c1nc(-c2cc3cn(C)nc3c(F)c2O)nc2ccc(N3CCNCC3)cc12 [Compound 506]", "> 7.00"),
    ("CC(C)(C)NC1CCN(c2ccc3nc(-c4cc5oc(CO)nc5cc4O)ccc3n2)C1 (stereo not shown) [Compound 336]", "> 7.00"),
    ("CNC(=O)c1nc(-c2cc3cn(C)nc3c(C)c2O)nc2ccc(N3C[C@@H](C)N[C@H](C)C3)cc12 (single isomer, unassigned) [Compound 653]", "> 7.00"),
    ("CCN[C@H]1CCN(c2ccc3nc(-c4cc5cn(C)nc5cc4O)ccc3n2)C1 [Compound 179]", "6.00 to 7.00"),
]

Give pIC50 for each of the items listed below.
1. Cc1nc2c(C)c(O)c(-c3ccc4nc(N5CC[C@@H](N[C@H]6C[C@@H](F)C6)C5)ccc4n3)cc2o1 (stereo in doubt) [Compound 376]
2. CC1CN(c2ccc3nc(-c4cc5cn(C)nc5cc4O)ccc3n2)CCN1 (stereo not shown) [Compound 117]
3. Cc1cc2nc(-c3cc4cn(C)nc4c(C)c3O)cc(Cl)c2cc1N1CCNCC1 [Compound 484]
4. Cc1cn2nc(-c3ccc4nc(N5CCC(NC(C)(C)C)C5)ccc4n3)c(O)c2c(C)n1 (stereo not shown) [Compound 203]

Result:
> 7.00
6.00 to 7.00
6.00 to 7.00
> 7.00
